Would you kindly list EC50 for each of these molecules?
Molecular target: UniProt Q92847
Experiment: Calcium FLIPR assay, GHSR-1a agonism
Conditions: HEK293/GHSR1a cells
Description: The intracellular calcium assay was carried out in a 384-well format FLIPR™ (Molecular Device) HEK293/GHSR1a cell line. Cells were seeded 24 hr prior to the experiments at an optimal density per well. […] Relative fluorescence was monitored by the FLIPR™ Molecular Device. […] To check for GHSR-1a antagonism the compound and Ghrelin (10 nM) were added to the cells at t=20 sec. and the calcium response was measured for 2 minutes. […]

A selection of reference data follows.
1) CC(NC(=O)N(C)C1CCN(C)CC1)c1ccc(-c2cncc(C3=CCCC3)c2)c(Cl)c1Cl (centres unmarked) | > 30000 nM
2) CC(NC(=O)N(C)C1CCN(C)CC1)c1ccc(Br)c2ccccc12 (centres unmarked) | > 30000 nM
3) CC(NC(=O)N(C)C1CCN(C)CC1)c1ccc(-c2cncc([N+](=O)[O-])c2)c(Cl)c1Cl (centres unmarked) | > 30000 nM
4) CC(NC(=O)N(C)C1CCN(C)CC1)c1ccc(-c2ccncn2)c(Cl)c1Cl (centres unmarked) | > 30000 nM
5) CC(NC(=O)N(C)C1CCN(C)CC1)c1ccc(-c2ccc(C(=O)O)s2)c(Cl)c1Cl (centres unmarked) | > 30000 nM

# map each molecule to its EC50
1. CC(NC(=O)N(C)C1CCN(C)CC1)c1ccc(C#CCO)c(Cl)c1Cl (centres unmarked)
2. CC(NC(=O)N(C)C1CCN(C)CC1)c1ccc(-c2cnc(N3CCN(C)CC3)nc2)c(Cl)c1Cl (centres unmarked)
3. CC(NC(=O)N(C)C1CCN(C)CC1)c1ccc(-c2cncc(-c3cnn(C)c3)c2)c(Cl)c1Cl (centres unmarked)
4. CC(NC(=O)N(C)C1CCN(C)CC1)c1ccc(-c2ccc(C#N)nc2)c(Cl)c1Cl (centres unmarked)

Result:
["10 nM", "14 nM", "> 30000 nM", "580 nM"]

###

biological target: GHSR1a (Homo sapiens, UniProt Q92847); construct: expressed in transfected cells; host or cells: HEK293; assay: Calcium FLIPR assay, GHSR-1a agonism; type: cell-based; parameters: unit not given here; conditions: HEK293/GHSR1a cells
Sequence (Q92847 whole entry): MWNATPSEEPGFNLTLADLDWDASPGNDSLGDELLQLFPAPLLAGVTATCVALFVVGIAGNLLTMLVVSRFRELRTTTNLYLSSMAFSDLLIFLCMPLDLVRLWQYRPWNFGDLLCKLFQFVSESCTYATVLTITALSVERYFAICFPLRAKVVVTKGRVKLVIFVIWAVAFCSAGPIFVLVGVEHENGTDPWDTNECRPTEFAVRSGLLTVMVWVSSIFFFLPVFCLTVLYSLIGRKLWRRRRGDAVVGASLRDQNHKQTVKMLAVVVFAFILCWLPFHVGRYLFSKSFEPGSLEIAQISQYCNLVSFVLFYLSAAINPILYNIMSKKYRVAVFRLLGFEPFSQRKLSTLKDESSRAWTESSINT
reported.metric: Emax
One number for each entry.

# map each compound to its Emax
1. CC(NC(=O)N(C)C1CCN(C)CC1)c1ccc(-c2cnc(C(=O)N(C)C)cn2)c(Cl)c1Cl (stereo not shown)
2. CC(NC(=O)N(C)C1CCN(C)CC1)c1ccc(-c2cccs2)c2ccccc12 (stereo not shown)
3. CC(NC(=O)N(C)C1CCN(C)CC1)c1ccc(-c2cnc(-n3ccnc3)nc2)c(Cl)c1Cl (stereo not shown)
4. CC(NC(=O)N(O)C1CCN(C)CC1)c1ccc(-c2cnccn2)c(Cl)c1Cl (stereo not shown)

Result:
1. 4662
2. 3533
3. 2364
4. 1729

###

target: GHSR1a (Homo sapiens); experiment: Calcium FLIPR assay, GHSR-1a antagonism (reduction of ghrelin response); details: HEK293/GHSR1a cells, ghrelin 10 nM
Would you kindly list pIC50 for each of these molecules?
One number for each entry, as −log10 of the molar value.

A selection of reference data follows.
1) CC(=O)C#Cc1ccc(C(C)NC(=O)N(C)C2CCN(C)CC2)c(Cl)c1Cl (stereo not drawn) [Compound H0701] | 7.70
2) CC(NC(=O)N(C)C1CCN(C)CC1)c1ccc(-c2cnc(N)s2)c(Cl)c1Cl (stereo not drawn) [Compound H0792] | 7.80
3) COc1ccc(-c2ccc(C(C)NC(=O)N(C)C3CCN(C)CC3)c(Cl)c2Cl)cc1 (stereo not drawn) [Compound H0508] | 7.12
4) CC(NC(=O)N(C)C1CCN(C)CC1)c1ccc(-c2ccc(C#N)s2)c(Cl)c1Cl (stereo not drawn) [Compound H0713] | 6.73
5) CC(NC(=O)N(C)C1CCN(C)CC1)c1ccc(-c2cnc(N3CCN(C)CC3)cn2)c(Cl)c1Cl (stereo not drawn) [Compound H0822] | 5.92

# map each molecule to its pIC50
1. C[C@H](NC(=O)N(C)C1CCN(C)CC1)c1ccc(-c2cnccn2)c(Cl)c1Cl [Compound H0816]
2. CC(NC(=O)N(C)C1CCN(C)CC1)c1ccc(-c2ccc[nH]2)c(Cl)c1Cl (stereo not drawn) [Compound H0535]
3. CC(NC(=O)N(C)C1CCN(C)CC1)c1ccc(-c2cccc(C#N)c2)c(Cl)c1Cl (stereo not drawn) [Compound H0610]
4. CC(NC(=O)N(C)C1CCN(C)CC1)c1ccc(-c2cnc(C#N)nc2)c(Cl)c1Cl (stereo not drawn) [Compound H0802]
5. CON(C(=O)NC(CC1CC1)c1ccc(-c2cnccn2)c(Cl)c1Cl)C1CCN(C)CC1 (stereo not drawn) [Compound H0741]
6. C[C@H](NC(=O)N(C)C1CCN(C)CC1)c1ccc(-c2cncc(F)n2)c(Cl)c1Cl [Compound H0847]
7. Cc1nccnc1-c1ccc(C(C)NC(=O)N(C)[C@@H]2CCN(C)CC2(C)C)c(Cl)c1Cl (stereo partly drawn) [Compound H0843]
8. CC(NC(=O)N(C)C1CCN(C)CC1)c1ccc(-c2ccc(CF)s2)c(Cl)c1Cl (stereo not drawn) [Compound H0668]

Result:
[8.29, 7.47, 7.00, 7.00, 7.82, 8.70, 7.46, 8.10]
